- System: NCI-H226 lung
- experimentNotes: NCI tumour cell line growth inhibition, 48 h; in the data active = GI50 below about 0.43 µM; inactive = the rest
// allowed return values: active, inactive

Before answering, review these 9 worked examples.
compoundStructure	categoryLabel
C#Cc1ccc(-n2c(/C=C/c3ccc(O)cc3)nc3ncccc3c2=O)cc1	inactive
CC(C)[C@@H]1CC[C@]2(CO2)[C@@H]2C(=O)OCC(C(=O)O)=C[C@H]21	inactive
Cc1cc(Br)c(NC(=O)c2c(-c3c(Cl)cccc3Cl)noc2C)c(Br)c1	inactive
CCc1ccc(Nc2cc(C)c3ccc(O)cc3n2)cc1	inactive
COc1ccccc1CNCCN1C(=O)c2ccc3c4c(ccc(c24)C1=O)C(=O)N(CCNCc1ccccc1OC)C3=O	inactive
O=C1c2cc3c(cc2-c2c1c1ccc(Cl)cc1c(=O)n2C[C@H](O)CO)OCO3	active
COc1ccc(-c2nc3ccc(Cc4ccc5nc(-c6ccc(OC)cc6)[nH]c5c4)cc3[nH]2)cc1	inactive
COc1cc(C(=O)/C=C/c2cccc(Nc3ccnc4cc(Cl)ccc34)c2)cc(OC)c1OC	inactive
COc1cc(/C=C/c2cc(/C=C/c3ccc(O)c(OC)c3)n(C(=O)c3ccccc3Br)n2)ccc1O	inactive

Attention now shifts to the item below.
Look up the recorded call for [O]=[V]([OH])([OH])[OH] in this test.
inactive
